Activity calls are given as the source filed them.
Hi! I'm sharing some Kd results obtained with ADP/ATP translocase 2 (Homo sapiens, UniProt P05141).
Sequence (P05141 whole entry): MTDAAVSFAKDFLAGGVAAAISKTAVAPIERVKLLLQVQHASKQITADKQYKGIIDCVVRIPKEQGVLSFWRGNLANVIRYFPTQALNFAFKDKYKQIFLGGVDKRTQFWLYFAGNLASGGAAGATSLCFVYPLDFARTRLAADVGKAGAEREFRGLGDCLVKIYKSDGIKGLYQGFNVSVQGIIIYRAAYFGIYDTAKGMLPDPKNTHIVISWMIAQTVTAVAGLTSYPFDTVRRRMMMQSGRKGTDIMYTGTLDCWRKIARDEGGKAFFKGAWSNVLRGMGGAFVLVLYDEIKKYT

[
  {
    "SMILES_INPUT": "CCc1cc2c(cc1N1CCC(N3CCOCC3)CC1)C(C)(C)c1[nH]c3cc(C#N)ccc3c1C2=O",
    "SYSTEM_NAME": "ADP/ATP translocase 2 (Homo sapiens, UniProt P05141)",
    "Kd": "> 30 µM (inactive)"
  },
  {
    "SMILES_INPUT": "CCc1nc(C(N)=O)c(Nc2ccc(N3CCC(N4CCN(C)CC4)CC3)c(OC)c2)nc1NC1CCOCC1",
    "SYSTEM_NAME": "ADP/ATP translocase 2 (Homo sapiens, UniProt P05141)",
    "Kd": "0.451 µM (active)"
  },
  {
    "SMILES_INPUT": "Cc1c(NC(=O)OC[C@@H]2COCCN2)cn2ncnc(Nc3ccc4c(cnn4Cc4cccc(F)c4)c3)c12",
    "SYSTEM_NAME": "ADP/ATP translocase 2 (Homo sapiens, UniProt P05141)",
    "Kd": "> 30 µM (inactive)"
  },
  {
    "SMILES_INPUT": "COc1cc2ncnc3c2cc1OCCCCCN(C)Cc1ccc(Br)cc1N3",
    "SYSTEM_NAME": "ADP/ATP translocase 2 (Homo sapiens, UniProt P05141)",
    "Kd": "> 30 µM (inactive)"
  }
]

Provenance of the data: ChEMBL document CHEMBL3991601
